Data origin, for the record: patent US7442703B2

Tested on: HIV-1 luciferase reporter virus in U87-CD4-CCR5 cells
Assay: HIV Replication (luciferase) assay
Type: cell-based
Details: Human immunodeficiency virus 1, U87/CD4/CCR5
Items are presented alongside their recorded IC50.
value kind: IC50 (nM)

compound=Cc1ncnc(C)c1C(=O)N1CCC(C)(N2CCC(N(c3ccccc3)c3ccc(C(F)(F)F)nc3)CC2)CC1 study_target="HIV-1 luciferase reporter virus in U87-CD4-CCR5 cells" measurement_units=nM quantitative_readout=0.11
compound="Cc1ncnc(C)c1C(=O)N1CCC(C)(N2CCC(N(Cc3ccccc3)C3CCCN(S(=O)(=O)C4CC4)C3)CC2)CC1 (stereo not shown)" study_target="HIV-1 luciferase reporter virus in U87-CD4-CCR5 cells" measurement_units=nM quantitative_readout=30
compound=Cc1ncnc(C)c1C(=O)N1CCC(C)(N2CCC(N(Cc3ccccc3)c3ccncc3)CC2)CC1 study_target="HIV-1 luciferase reporter virus in U87-CD4-CCR5 cells" measurement_units=nM quantitative_readout=0.8
compound=CCCN(c1cccc2cccnc12)C1CCN(C2(C)CCN(C(=O)c3c(C)ncnc3C)CC2)CC1 study_target="HIV-1 luciferase reporter virus in U87-CD4-CCR5 cells" measurement_units=nM quantitative_readout=23

----------
Where a name gives a salt, the structure may show the parent alone.
value kind: melting point

compound="Cc1ncnc(C)c1C(=O)N1CCC(C)(N2CCC(N(Cc3ccccc3)c3ccncc3)CC2)CC1 (as salt: HCl)" value_kind="melting point" result="182 to 189 °C"
compound="Cc1ncnc(C)c1C(=O)N1CCC(C)(N2CCC(N(Cc3ccccc3)c3ccc(Br)cc3)CC2)CC1 (as salt: HCl)" value_kind="melting point" result="168 to 170 °C"
compound="CCCN(c1cccc2cccnc12)C1CCN(C2(C)CCN(C(=O)c3c(C)ncnc3C)CC2)CC1 (as salt: HCl)" value_kind="melting point" result="181 °C (dec.)"

----------
Where a name gives a salt, the structure may show the parent alone.
value kind: melting point

compound="Cc1ncnc(C)c1C(=O)N1CCC(C)(N2CCC(N(Cc3ccccc3)C3CCCN(S(=O)(=O)C4CC4)C3)CC2)CC1 (stereo not drawn) (as salt: HCl) [Compound 112]" result="190 to 195 °C"
compound="Cc1ncnc(C)c1C(=O)N1CCC(C)(N2CCC(N(C)c3ccc(Cl)c4cccnc34)CC2)CC1 (as salt: HCl)" result="164 to 167 °C (dec.)"
compound="Cc1ncnc(C)c1C(=O)N1CCC(C)(N2CCC(N(c3ccccc3)c3ccc(C(F)(F)F)nc3)CC2)CC1 (as salt: HCl) [Compound 69]" result="189 to 193 °C"
